# System: Escherichia coli
# experiment: Antibacterial activity against Escherichia coli ATCC 25922 after 24 hrs by broth dilution method
# Type: functional
# cond: ATCC 25922, 24 h
Square brackets hold non-standard residues; d marks the D form. Peptide text beside a SMILES is read from it. Gly(1-adamantyl) = N[C@H](C(=O)O)C12CC3CC(CC(C3)C1)C2; Orn = NCCC[C@H](N)C(=O)O
Listed next: entries and their corresponding MIC.
endpoint.name: MIC

molecule: CC(C)(C)C[C@@H]1NC(=O)[C@H](CCCN)NC(=O)[C@@H]2CCCN2C(=O)[C@@H](Cc2ccccc2)NC(=O)[C@H](CCCN)NC(=O)[C@H](CC(C)(C)C)NC(=O)[C@H](CCCN)NC(=O)[C@@H]2CCCN2C(=O)[C@@H](Cc2ccccc2)NC(=O)[C@H](CCCN)NC1=O
target.or.test.system: Escherichia coli
endpoint.name: MIC
result: > 64 µg/mL

molecule: NCCC[C@@H]1NC(=O)[C@H](C23CC4CC(CC(C4)C2)C3)NC(=O)[C@H](CCCN)NC(=O)[C@@H]2CCCN2C(=O)[C@@H](Cc2ccccc2)NC(=O)[C@H](CCCN)NC(=O)[C@H](C23CC4CC(CC(C4)C2)C3)NC(=O)[C@H](CCCN)NC(=O)[C@@H]2CCCN2C(=O)[C@@H](Cc2ccccc2)NC1=O (cyclo([Orn][dF]P[Orn][Gly(1-adamantyl)][Orn][dF]P[Orn][Gly(1-adamantyl)]))
target.or.test.system: Escherichia coli
endpoint.name: MIC
result: 8 µg/mL

molecule: CC(C)(C)[C@@H]1NC(=O)[C@H](CCCN)NC(=O)[C@@H]2CCCN2C(=O)[C@@H](Cc2ccccc2)NC(=O)[C@H](CCCN)NC(=O)[C@H](C23CC4CC(CC(C4)C2)C3)NC(=O)[C@H](CCCN)NC(=O)[C@@H]2CCCN2C(=O)[C@@H](Cc2ccccc2)NC(=O)[C@H](CCCN)NC1=O
target.or.test.system: Escherichia coli
endpoint.name: MIC
result: 32 µg/mL

molecule: CC(C)C[C@@H]1NC(=O)[C@H](CCCN)NC(=O)[C@@H]2CCCN2C(=O)[C@@H](Cc2ccccc2)NC(=O)[C@H](CCCN)NC(=O)[C@H](CC(C)C)NC(=O)[C@H](CCCN)NC(=O)[C@@H]2CCCN2C(=O)[C@@H](Cc2ccccc2)NC(=O)[C@H](CCCN)NC1=O
target.or.test.system: Escherichia coli
endpoint.name: MIC
result: > 64 µg/mL
